- tested system: Angiotensin II receptor (Rattus norvegicus, UniProt P29089+P25095+P35351)
- experiment notes: Binding affinity for rat brain Angiotensin II receptor

molecule | unit text | IC50
O=C(O)C1Cc2c(ncn2Cc2ccccc2)CN1C(=O)C1c2ccccc2-c2ccccc21 (centres undefined) | nM | 19000
Cc1cc(Cn2cnc3c2C[C@@H](C(=O)O)N(C(=O)C(c2ccccc2)c2ccccc2)C3)ccc1N(C)C | nM | 210
O=C(O)[C@@H]1Cc2c(ncn2CCC23CC4CC(CC(C4)C2)C3)CN1C(=O)C(c1ccccc1)c1ccccc1 | nM | 170
O=C(O)C1Cc2c(ncn2Cc2ccccc2)CN1C(=O)C(c1ccccc1)c1ccccc1 (stereo in doubt; 18a) | nM | 3800
O=C(O)[C@@H]1Cc2c(ncn2Cc2ccc(C(F)(F)F)cc2)CN1C(=O)C(c1ccccc1)c1ccccc1 | nM | 800
O=C(O)[C@@H]1Cc2c(ncn2CCCc2ccccc2)CN1C(=O)C(c1ccccc1)c1ccccc1 | nM | 400
O=C(O)C1Cc2c(ncn2Cc2ccccc2)CN1C(=O)C(c1ccc(Cl)cc1)c1ccc(Cl)cc1 (centres undefined) | nM | 8200
COc1ccc(Cn2cnc3c2CC(CO)N(C(=O)C(c2ccccc2)c2ccccc2)C3)cc1C (centres undefined) | nM | 130
Cc1cccc(Cn2cnc3c2C[C@@H](C(=O)O)N(C(=O)C(c2ccccc2)c2ccccc2)C3)c1 | nM | 1600

----------
Parameter inhibition: see the listing below.
- tested system: Angiotensin II receptor (Rattus norvegicus) (UniProt P29089+P25095+P35351)
- experiment notes: Inhibitory activity against Angiotensin II receptor, from rat adrenal gland at a concentration of 10 uM
- Assay type: tissue-based

compound | unit text | inhibition
O=C(O)C1Cc2c(ncn2Cc2ccccc2)CN1C(=O)c1ccccc1 (centres undefined) | % | 12
O=C(O)C1Cc2ncn(Cc3ccccc3)c2CN1C(=O)Nc1ccccc1 (centres undefined) | % | 24
NC(=O)C1Cc2c(ncn2Cc2ccccc2)CN1C(=O)Nc1ccccc1 (centres undefined) | % | 14
CC(=O)N1Cc2ncn(Cc3ccccc3)c2CC1C(=O)O (centres undefined) | % | 4

----------
- tested system: Angiotensin II receptor (Rattus norvegicus, UniProt P29089+P25095+P35351)
- experiment notes: Binding affinity against Angiotensin II receptor, from rat adrenal gland
- Assay type: tissue-based

molecule | tested system | IC50 [nM]
COc1cccc(Cn2cnc3c2C[C@@H](C(=O)O)N(C(=O)C(c2ccccc2)c2ccccc2)C3)c1 | Angiotensin II receptor (Rattus norvegicus, UniProt P29089+P25095+P35351) | 120
COC(=O)C1Cc2c(ncn2Cc2ccc([N+](=O)[O-])c(C)c2)CN1C(=O)C(c1ccccc1)c1ccccc1 (configuration not stated) | Angiotensin II receptor (Rattus norvegicus, UniProt P29089+P25095+P35351) | 5100
O=C(O)C1Cc2c(ncn2Cc2ccccc2)CN1C(=O)C1c2ccccc2-c2ccccc21 (configuration not stated) | Angiotensin II receptor (Rattus norvegicus, UniProt P29089+P25095+P35351) | 8000
O=C(O)C1Cc2c(ncn2Cc2ccccc2)CN1C(=O)OCc1ccccc1 (stereo in doubt; 7) | Angiotensin II receptor (Rattus norvegicus, UniProt P29089+P25095+P35351) | 14000
COc1ccc(Cn2cnc3c2CCN(C(=O)C(c2ccccc2)c2ccccc2)C3)cc1C | Angiotensin II receptor (Rattus norvegicus, UniProt P29089+P25095+P35351) | 4400
COc1ccc(Cn2cnc3c2C[C@@H](C(=O)O)N(C(=O)C(Cc2ccccc2)c2ccccc2)C3)cc1C (some centres not stated) | Angiotensin II receptor (Rattus norvegicus, UniProt P29089+P25095+P35351) | 3500
O=C(O)[C@@H]1Cc2c(ncn2C(c2ccccc2)c2ccccc2)CN1C(=O)C(c1ccccc1)c1ccccc1 | Angiotensin II receptor (Rattus norvegicus, UniProt P29089+P25095+P35351) | 110
COc1ccc(C(C(=O)N2Cc3ncn(Cc4ccc(OC)c(C)c4)c3C[C@H]2C(=O)O)c2ccc(OC)cc2)cc1 | Angiotensin II receptor (Rattus norvegicus, UniProt P29089+P25095+P35351) | 2000
O=C(O)[C@@H]1Cc2c(ncn2CCc2ccccc2)CN1C(=O)C(c1ccccc1)c1ccccc1 | Angiotensin II receptor (Rattus norvegicus, UniProt P29089+P25095+P35351) | 240
O=C(O)C1Cc2c(ncn2Cc2ccccc2)CN1C(=O)C(c1ccccc1)c1ccccc1 (stereo in doubt; 18a) | Angiotensin II receptor (Rattus norvegicus, UniProt P29089+P25095+P35351) | 440
Cc1cc(C)cc(Cn2cnc3c2C[C@@H](C(=O)O)N(C(=O)C(c2ccccc2)c2ccccc2)C3)c1 | Angiotensin II receptor (Rattus norvegicus, UniProt P29089+P25095+P35351) | 140
COc1ccc(Cn2cnc3c2C[C@@H](C(=O)O)N(C(=O)C(c2ccccc2)c2ccccc2)C3)cc1C | Angiotensin II receptor (Rattus norvegicus, UniProt P29089+P25095+P35351) | 70
O=C(C(c1ccccc1)c1ccccc1)N1Cc2ncn(Cc3ccccc3)c2CC1CO (configuration not stated) | Angiotensin II receptor (Rattus norvegicus, UniProt P29089+P25095+P35351) | 2100
CN(C(=O)N1Cc2ncn(Cc3ccccc3)c2CC1C(=O)O)c1ccccc1 (stereo in doubt; 3a) | Angiotensin II receptor (Rattus norvegicus, UniProt P29089+P25095+P35351) | 1100
O=C(O)C1Cc2c(ncn2Cc2ccccc2)CN1C(=O)/C=C/c1ccccc1 (configuration not stated) | Angiotensin II receptor (Rattus norvegicus, UniProt P29089+P25095+P35351) | 2500
COc1ccc(Cn2cnc3c2C[C@@H](C(=O)O)N(C(=O)C(c2ccccc2)C2CCCCC2)C3)cc1C (some centres not stated) | Angiotensin II receptor (Rattus norvegicus, UniProt P29089+P25095+P35351) | 85
COc1ccc(Cn2cnc3c2C[C@@H](C(=O)O)N(C(=O)Cc2ccccc2)C3)cc1C | Angiotensin II receptor (Rattus norvegicus, UniProt P29089+P25095+P35351) | 530
